So I've got a bunch of compounds here, and I need their IC50 values.
- measuredOn: human JAK1 kinase domain (JH1) (Homo sapiens)
- Construct: recombinantly generated catalytic kinase (also known as JH1) domain of human JAK1, JAK2, JAK3 and TYK2
- Sequence (P23458 875-1153 limits assumed): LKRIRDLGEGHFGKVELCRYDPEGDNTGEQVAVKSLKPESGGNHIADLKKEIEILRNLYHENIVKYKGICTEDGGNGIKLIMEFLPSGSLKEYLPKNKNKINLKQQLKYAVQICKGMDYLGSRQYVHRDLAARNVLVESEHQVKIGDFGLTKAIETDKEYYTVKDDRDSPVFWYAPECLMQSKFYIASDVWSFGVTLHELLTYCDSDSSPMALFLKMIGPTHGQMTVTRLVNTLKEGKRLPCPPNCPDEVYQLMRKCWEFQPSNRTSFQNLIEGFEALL
- assayInfo: JH1 biochemical assay for JAK1 (ADP-Glo kinase assay, recombinant JH1 catalytic domain, JAK3-342 peptide, 35 μM ATP)
- conditionsUsed: JH1 kinase domain, ADP-Glo
Counter-ions that a name gives are not always drawn.

Consider the worked cases shown below.
{"compound": "C[C@@H]1CN(c2ccnn3cc(-c4cnn(S(C)(=O)=O)c4)cc23)C(=O)[C@]1(C#N)C1CC1 [Example 163]", "IC50": "0.1 to 1 µM"}
{"compound": "Cn1cc(-c2cc3c(N4CC[C@](C#N)(C5CCC5)C4=O)ccnn3c2)cn1 (single isomer, unassigned) [Example 47]", "IC50": "> 10 µM"}
{"compound": "C[C@@H]1CN(c2nc(-c3cnc4c(c3)CCN4)cn3nccc23)C(=O)[C@]1(C#N)C1CC1 [Example 215]", "IC50": "< 0.1 µM"}
{"compound": "COc1cnc(-c2cc3c(N4C[C@@H](C)[C@@](C#N)(C5CC5)C4=O)ccnn3c2)nc1 [Example 136, trifluoroacetate]", "IC50": "1 to 5 µM"}
{"compound": "Cn1cc(-c2cc3c(N4CC[C@@H](C5CC5)C4=O)ccnn3c2)cn1 (single isomer, unassigned) [Example 37]", "IC50": "> 10 µM"}

Required: IC50, one value per compound below.
1. C[C@@H]1CN(c2nc(-c3cnn(C4CCOCC4)c3)cn3nccc23)C(=O)[C@]1(C#N)C1CC1 [Example 203]
2. C[C@@H]1CN(c2ccnn3cc(-c4ccc(N(C)C(=O)OC(C)(C)C)nc4)cc23)C(=O)[C@]1(C#N)C1CC1 [Example 95]
3. C[C@@H]1CN(c2ccnn3cc(-c4cnn(C)c4)cc23)C(=O)[C@]1(C#N)C1CC1 [Example 34]
4. COc1cccc(-c2cn3nccc3c(N3C[C@@H](C)[C@@](C#N)(C4CC4)C3=O)n2)n1 [Example 193]
5. C[C@@H]1CN(c2ccnn3cc(-c4ncccn4)cc23)C(=O)[C@]1(C#N)C1CC1 [Example 139]
6. Cc1nc(-c2cc3c(N4C[C@@H](C)[C@@](C#N)(C5CC5)C4=O)ccnn3c2)ccc1C#N [Example 119, trifluoroacetate]
7. CC[C@]1(C#N)CCN(c2ccnn3cc(-c4cnn(C)c4)cc23)C1=O (single isomer, unassigned) [Example 42]
8. C[C@@H]1CN(c2nc(-c3cccnc3)cn3nccc23)C(=O)[C@]1(C#N)C1CC1 [Example 194]

1: < 0.1 µM; 2: 0.1 to 1 µM; 3: 0.1 to 1 µM; 4: 0.1 to 1 µM; 5: 1 to 5 µM; 6: 1 to 5 µM; 7: 1 to 5 µM; 8: < 0.1 µM

----------
Give measured pIC50 for each item. Keep answers brief.
- measuredOn: JAK1 kinase activity on STAT3 in TF1 cells (Homo sapiens, UniProt P23458)
- Sequence (P23458 whole entry): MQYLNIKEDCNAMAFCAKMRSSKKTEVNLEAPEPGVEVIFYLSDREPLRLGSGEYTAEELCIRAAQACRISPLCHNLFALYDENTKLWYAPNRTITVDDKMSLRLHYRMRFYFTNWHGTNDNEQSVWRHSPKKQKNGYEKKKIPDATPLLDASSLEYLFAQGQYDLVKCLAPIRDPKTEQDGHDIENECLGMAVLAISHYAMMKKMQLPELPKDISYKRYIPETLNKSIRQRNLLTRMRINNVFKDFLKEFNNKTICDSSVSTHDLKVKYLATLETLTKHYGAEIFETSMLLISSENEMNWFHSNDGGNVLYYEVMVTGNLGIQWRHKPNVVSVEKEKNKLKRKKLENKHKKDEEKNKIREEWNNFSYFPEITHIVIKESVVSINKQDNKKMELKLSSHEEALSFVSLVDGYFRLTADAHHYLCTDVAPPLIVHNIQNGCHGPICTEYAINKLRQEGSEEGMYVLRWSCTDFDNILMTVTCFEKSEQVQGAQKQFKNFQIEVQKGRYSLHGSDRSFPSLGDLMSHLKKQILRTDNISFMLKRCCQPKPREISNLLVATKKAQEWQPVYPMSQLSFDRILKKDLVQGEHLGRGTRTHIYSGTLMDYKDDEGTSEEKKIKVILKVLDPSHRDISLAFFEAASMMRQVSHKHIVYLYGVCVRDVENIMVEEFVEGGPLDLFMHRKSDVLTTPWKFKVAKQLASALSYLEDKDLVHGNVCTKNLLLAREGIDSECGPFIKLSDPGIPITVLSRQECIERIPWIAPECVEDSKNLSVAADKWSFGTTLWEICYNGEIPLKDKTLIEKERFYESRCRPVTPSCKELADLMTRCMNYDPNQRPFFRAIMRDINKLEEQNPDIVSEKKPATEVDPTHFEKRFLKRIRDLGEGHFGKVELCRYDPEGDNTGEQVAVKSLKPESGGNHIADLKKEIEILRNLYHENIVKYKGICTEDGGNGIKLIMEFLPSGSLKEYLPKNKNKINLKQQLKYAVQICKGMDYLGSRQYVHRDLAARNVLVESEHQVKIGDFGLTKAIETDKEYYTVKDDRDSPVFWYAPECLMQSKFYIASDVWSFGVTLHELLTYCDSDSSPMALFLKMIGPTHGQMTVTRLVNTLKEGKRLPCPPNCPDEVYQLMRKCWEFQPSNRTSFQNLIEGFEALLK
- assayInfo: pSTAT3 cell assay (MSD; TF1 cells, 30 ng/mL IL-6 stimulation)
- conditionsUsed: 30 ng/mL IL-6, 15 minutes
pIC50: −log10 of the molar value. Counter-ions that a name gives are not always drawn.

{"molecule": "C[C@@H]1CN(c2ccnn3cc(-c4cnn(C5CCN(C)C5)c4)cc23)C(=O)[C@]1(C#N)C1CC1 (stereo partly shown)", "measuredOn": "JAK1 kinase activity on STAT3 in TF1 cells (Homo sapiens, UniProt P23458)", "pIC50": "5.30 to 6.00"}
{"molecule": "C[C@@H]1CN(c2nc(-c3cnn(-c4ccccn4)c3)cn3nccc23)C(=O)[C@]1(C#N)C1CC1", "measuredOn": "JAK1 kinase activity on STAT3 in TF1 cells (Homo sapiens, UniProt P23458)", "pIC50": "6.00 to 7.00"}
{"molecule": "C[C@@H]1CN(c2nc(-c3cnn(C4CC4(F)F)c3)cn3nccc23)C(=O)[C@]1(C#N)C1CC1 (stereo partly shown)", "measuredOn": "JAK1 kinase activity on STAT3 in TF1 cells (Homo sapiens, UniProt P23458)", "pIC50": "6.00 to 7.00"}
{"molecule": "C[C@@H]1CN(c2ccnn3cc(-c4ccc5cncn5c4)cc23)C(=O)[C@]1(C#N)C1CC1", "measuredOn": "JAK1 kinase activity on STAT3 in TF1 cells (Homo sapiens, UniProt P23458)", "pIC50": "5.30 to 6.00"}
{"molecule": "C[C@@H]1CN(c2ccnn3cc(-c4cnn(S(C)(=O)=O)c4)cc23)C(=O)[C@]1(C#N)C1CC1", "measuredOn": "JAK1 kinase activity on STAT3 in TF1 cells (Homo sapiens, UniProt P23458)", "pIC50": "5.30 to 6.00"}

For every item below, please supply its pIC50.
1. CO[C@H]1C[C@H](n2cc(-c3cn4ncc(F)c4c(N4C[C@@H](C)[C@@](C#N)(C5CC5)C4=O)n3)cn2)C1
2. Cc1cnc(-c2cc3c(N4C[C@@H](C)[C@@](C#N)(C5CC5)C4=O)ccnn3c2)s1 [Example 118, trifluoroacetate]

6.00 to 7.00
5.00 to 5.30

----------
For each of the compounds below, state its pIC50.
- measuredOn: human TYK2 kinase domain (JH1) (Homo sapiens, UniProt P29597)
- Construct: recombinantly generated catalytic kinase (also known as JH1) domain of human JAK1, JAK2, JAK3 and TYK2
- Sequence (P29597 897-1176 limits assumed): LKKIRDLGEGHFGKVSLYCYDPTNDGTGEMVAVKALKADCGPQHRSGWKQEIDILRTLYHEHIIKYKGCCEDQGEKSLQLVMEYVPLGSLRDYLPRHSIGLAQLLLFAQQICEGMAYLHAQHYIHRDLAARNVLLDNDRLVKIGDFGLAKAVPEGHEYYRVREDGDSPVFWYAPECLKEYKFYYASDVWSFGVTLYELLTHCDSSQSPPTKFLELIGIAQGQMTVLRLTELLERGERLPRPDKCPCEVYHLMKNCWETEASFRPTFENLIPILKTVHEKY
- assayInfo: JH1 biochemical assay for TYK2 (ADP-Glo kinase assay, recombinant JH1 catalytic domain, JAK3-974 peptide, 10 μM ATP)
- conditionsUsed: JH1 kinase domain, ADP-Glo
pIC50: −log10 of the molar value. Structures can show the parent of a compound that is named as a salt.

These solved cases illustrate the format of a correct answer.
{"compound": "C[C@@H]1CN(c2ccnn3cc(-c4ncccc4O)cc23)C(=O)[C@]1(C#N)C1CC1 [Example 149, trifluoroacetate]", "result": "7.30 to 7.70"}
{"compound": "C[C@@H]1CN(c2ncnn3cc(-c4cnn(C)c4)cc23)C(=O)[C@]1(C#N)C1CC1 [Example 180]", "result": "< 7.00"}
{"compound": "CCc1ccncc1-c1cc2c(N3C[C@@H](C)[C@@](C#N)(C4CC4)C3=O)ccnn2c1 [Example 175, trifluoroacetate]", "result": "< 7.00"}

Now for a further compound.
GET /values?readout=pIC50&item= Cn1cc(-c2cc3c(N4CC[C@@](CC#N)(C5CC5)C4=O)ccnn3c2)cn1 [Example 27]
< 7.00

----------
- measuredOn: human JAK3 kinase domain (JH1) (Homo sapiens)
- Construct: recombinantly generated catalytic kinase (also known as JH1) domain of human JAK1, JAK2, JAK3 and TYK2
- Sequence (P52333 822-1111 limits assumed): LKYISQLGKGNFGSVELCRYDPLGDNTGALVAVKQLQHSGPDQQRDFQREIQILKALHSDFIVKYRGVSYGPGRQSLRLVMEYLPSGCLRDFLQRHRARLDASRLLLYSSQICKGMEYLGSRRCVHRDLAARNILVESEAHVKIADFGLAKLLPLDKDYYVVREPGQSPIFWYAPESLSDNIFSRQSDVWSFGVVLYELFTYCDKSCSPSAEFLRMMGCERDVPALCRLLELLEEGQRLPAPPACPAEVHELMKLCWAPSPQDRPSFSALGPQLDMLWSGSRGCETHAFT
- assayInfo: JH1 biochemical assay for JAK3 (ADP-Glo kinase assay, recombinant JH1 catalytic domain, JAK3-974 peptide, 4 μM ATP)
- conditionsUsed: JH1 kinase domain, ADP-Glo
pIC50: −log10 of the molar value. Counter-ions that a name gives are not always drawn.
propertyLabel: pIC50

{"compound": "C[C@@H]1CN(c2ccnn3cc(-c4cnn(CC#N)c4)cc23)C(=O)[C@]1(C#N)C1CC1", "measuredOn": "human JAK3 kinase domain (JH1) (Homo sapiens)", "propertyLabel": "pIC50", "result": "> 7.00"}

Please go through the list and note pIC50 for each compound.
1. C[C@@H]1CN(c2ccnn3cc(-c4cn(C)cn4)cc23)C(=O)[C@]1(C#N)C1CC1 [Example 111, trifluoroacetate]
2. Cc1cncc(-c2cc3c(N4C[C@@H](C)[C@@](C#N)(C5CC5)C4=O)ccnn3c2)c1
3. C[C@@H]1CN(c2ccnn3cc(-c4cnc5[nH]ncc5c4)cc23)C(=O)[C@]1(C#N)C1CC1
4. Cn1cc(-c2cc3c(N4CCC(C#N)C4=O)ccnn3c2)cn1 (stereo not shown)
5. COc1cccc(-c2cc3c(N4C[C@@H](C)[C@@](C#N)(C5CC5)C4=O)ccnn3c2)n1 [Example 143, trifluoroacetate]
6. C[C@@H]1CN(c2ccnn3cc(-c4ccc5ncnn5c4)cc23)C(=O)[C@]1(C#N)C1CC1

6.00 to 7.00
6.00 to 7.00
6.00 to 7.00
5.00 to 5.30
6.00 to 7.00
6.00 to 7.00

----------
Field: pIC50. Provide a value for each of the compounds that follow.
- measuredOn: human JAK3 kinase domain (JH1) (Homo sapiens)
- Construct: recombinantly generated catalytic kinase (also known as JH1) domain of human JAK1, JAK2, JAK3 and TYK2
- assayInfo: JH1 biochemical assay for JAK3 (ADP-Glo kinase assay, recombinant JH1 catalytic domain, JAK3-974 peptide, 4 μM ATP)
- conditionsUsed: JAK3 JH1, ADP-Glo
pIC50: −log10 of the molar value. Where a name gives a salt, the structure may show the parent alone.

{"compound": "C[C@@H]1CN(c2nc(-c3cccc4cnn(C)c34)cn3nccc23)C(=O)[C@]1(C#N)C1CC1", "measuredOn": "human JAK3 kinase domain (JH1) (Homo sapiens)", "pIC50": "< 5.00"}

For every listed record, write down its pIC50.
1. C[C@@H]1CN(c2nn(-c3cnn(C)c3)c3cnccc23)C(=O)[C@]1(C#N)C1CC1
2. C[C@@H]1CN(c2nc(-c3ccnc(C(F)(F)F)c3)cn3nccc23)C(=O)[C@]1(C#N)C1CC1 [Example 234, trifluoroacetate]

6.00 to 7.00
6.00 to 7.00

# return pIC50 for each item in the list
1. COc1cncc(-c2cn3ncc(F)c3c(N3C[C@@H](C)[C@@](C#N)(C4CC4)C3=O)n2)c1
2. C[C@@H]1CN(c2nc(-c3ccc(C(F)(F)F)nc3)cn3nccc23)C(=O)[C@]1(C#N)C1CC1 [Example 238, trifluoroacetate]

1: 5.30 to 6.00; 2: < 5.00
